- System: HCT116 MTAP KO cells
- Measurement notes: Inhibitory activity against cell proliferation (CellTiter Glo, 6 days), HCT116 MTAP KO
- Assay type: cell-based
- Condition info: ratio of IC50 HCT116-WT / HCT116 MTAP KO
- Protocol: HCT116-WT (ATCC, CCL-247) and HCT116 MTAP KO (Nanjing Cobioer, CBP75002) cells were seeded into white low-transparency sterile 96-well cell culture plates at a density of 250 cells per well respectively, and the culture medium was McCoy's 5A Medium+10% FBS. The plates were placed under the condition of 37°C and 5% CO2 to be cultured overnight. […] The IC50 values for inhibition of the compounds on cell viability were calculated in X1fit 5.0 software. […]
Could you please mark class 1 for values of Selectivity HCT 116-WT/ HCT116 MTAP KO below 30 and class 0 for values at or above it?

| Compound | System tested | Class label |
| --- | --- | --- |
| Cc1ncc(-c2ccc(CN(C(=O)c3ccc4nc(N)c(C)cc4c3)N(C)c3ncccn3)nc2)s1 [Example 151] | HCT116 MTAP KO cells | class 0 |
| Cn1ncc2c(N)nc3cc(Cl)c(C(=O)N4CC(C(F)(F)F)CN4c4ncccc4F)cc3c21 (stereo not shown) [Example 351] | HCT116 MTAP KO cells | class 1 |
| Cc1cc2nc(N)c3cnn(C)c3c2cc1C(=O)N1CCCN1c1ncc(-c2ccsc2)cc1F [Example 483] | HCT116 MTAP KO cells | class 0 |
| Cc1cc2cc(C(=O)N(Cc3ccc(-c4cnc5c(cnn5C)c4)cn3)N(C)c3ncccn3)ccc2nc1N [Example 190] | HCT116 MTAP KO cells | class 1 |
| Cc1cc2cc(C(=O)N(Cc3ccc(C(F)(F)F)cn3)n3ccc4cccnc43)ccc2nc1N [Example 21] | HCT116 MTAP KO cells | class 1 |
| Cn1ncc2c(N)nc3cc(Cl)c(C(=O)N4CC(F)(F)CN4c4ccccc4F)cc3c21 [Example 457] | HCT116 MTAP KO cells | class 1 |
| Cc1cc2nc(N)c3cnn(C)c3c2cc1C(=O)N1CC(C)CN1c1cccc(Br)n1 (stereo not shown) [Example 404] | HCT116 MTAP KO cells | class 1 |
| Cc1cc2cc(C(=O)N(Cc3ccc(C(F)(F)F)cn3)N(C)c3nccc4ccsc34)ccc2nc1N [Example 274] | HCT116 MTAP KO cells | class 1 |
| Cc1cc2nc(N)c3cnn(C)c3c2cc1C(=O)N1CCCN1c1ncccc1F [Example 342] | HCT116 MTAP KO cells | class 0 |
| Cc1cc2cc(C(=O)N(Cc3ccc(C(F)(F)F)cn3)N3CCc4cccnc43)ccc2nc1N [Example 22] | HCT116 MTAP KO cells | class 1 |
| Cc1cc2cc(C(=O)N(Cc3ccc(-c4cn[nH]c4)cn3)N(C)c3ncccn3)ccc2nc1N [Example 200] | HCT116 MTAP KO cells | class 0 |
| Cc1cc2nc(N)c3cnn(C)c3c2cc1C(=O)N1CC(C)CN1c1ccncc1F (stereo not shown) [Example 379] | HCT116 MTAP KO cells | class 0 |
| Cc1cc2cc(C(=O)N(Cc3ccc(C(F)(F)F)cn3)N(C)c3ccccc3)ccc2nc1N [Example 75] | HCT116 MTAP KO cells | class 1 |
| Cc1cc2cc(C(=O)N(Cc3ccc(Br)cc3F)N(C)c3ncccn3)ccc2nc1N [Example 84] | HCT116 MTAP KO cells | class 1 |
| COC1CN(C(=O)c2cc3c(cc2Cl)nc(N)c2cnn(C)c23)N(c2cccc(F)c2F)C1 (stereo not shown) [Example 447] | HCT116 MTAP KO cells | class 1 |
